# measured-target: PPAR-α (Homo sapiens, UniProt Q07869)
# Construct: expressed in transfected cells; host or cells: CV-1 (African green monkey kidney)
# Sequence (Q07869 167-468): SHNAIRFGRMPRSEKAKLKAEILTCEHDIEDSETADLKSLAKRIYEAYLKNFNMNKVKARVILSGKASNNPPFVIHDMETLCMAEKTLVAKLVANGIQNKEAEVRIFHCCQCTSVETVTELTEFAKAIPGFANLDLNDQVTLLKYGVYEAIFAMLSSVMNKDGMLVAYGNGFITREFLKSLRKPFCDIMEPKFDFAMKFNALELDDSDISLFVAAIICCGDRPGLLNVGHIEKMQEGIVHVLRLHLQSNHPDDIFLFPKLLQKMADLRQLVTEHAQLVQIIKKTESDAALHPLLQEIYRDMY
# test-details: Measurement of PPAR-α activity (GAL4 luciferase reporter assay in CV-1 cells)
# Type: cell-based
# test-context: 100(A/B): A = maximum PPAR-α activity of test compound at 3, 10, 30 and 100 μM, B = activity of the compound of WO/2011/058154 at 100 μM, 18 to 20 hours, read-out: Relative fold induction (%) of PPAR α
Where a name gives a salt, the structure may show the parent alone.
Returns one of condition met or condition not met; condition met when Emax is >= 10%.

1) O=C(O)CN(CC1CCOCC1)C(=O)c1cccc(COc2ccc(-c3cc(F)c(F)c4ccoc34)cc2)c1 [Example 9]; condition met
2) O=C(O)[C@@H]1[C@H](O)CCN1C(=O)c1cccc(COc2ccc(-c3cc(F)c(F)c4ccoc34)cc2)c1 [Example 3]; condition met
3) CS(=O)(=O)NCCN(CC(=O)O)C(=O)c1cccc(COc2ccc(-c3cc(F)c(F)c4ccoc34)cc2)c1 [Example 16]; condition met
4) CSc1cc(F)c(F)cc1-c1ccc(OCc2cccc(C(=O)N(CCn3cncn3)CC(=O)O)c2)cc1 [Example 70]; condition met
5) CSc1cc(F)c(F)cc1-c1ccc(OCc2cccc(C(=O)N3C[C@H](C(N)=O)C[C@H]3C(=O)O)c2)cc1 [Example 61]; condition met
6) NC(=O)CCN(CC(=O)O)C(=O)c1cccc(COc2ccc(-c3cc(F)c(F)c4ccoc34)cc2)c1 [Example 79]; condition not met
7) COC[C@@H]1CC[C@@H](C(=O)O)N1C(=O)c1cccc(COc2ccc(-c3cc(F)c(F)cc3SC)cc2)c1 [Example 62]; condition met
8) COC(C)(C)CN(CC(=O)O)C(=O)c1cccc(COc2ccc(-c3cc(F)c(F)cc3SC)cc2)c1 [Example 23]; condition met
9) COC[C@H]1CC[C@@H](C(=O)O)N1C(=O)c1cccc(COc2ccc(-c3cc(F)c(F)cc3SC)cc2)c1 [Example 65]; condition not met
10) CSc1cc(F)c(F)cc1-c1ccc(OCc2cccc(C(=O)N(CC(=O)O)CC3CCCNC3)c2)cc1 (stereo not shown) [Example 50, Trifluoroacetate]; condition not met
11) CSc1cc(F)c(F)cc1-c1ccc(OCc2cccc(C(=O)N(CC(=O)O)C3CCNCC3)c2)cc1 [Example 36, Trifluoroacetate]; condition not met
12) CSc1cc(F)c(F)cc1-c1ccc(OCc2cccc(C(=O)N(CC(=O)O)Cc3cscn3)c2)cc1 [Example 71]; condition met
13) CSc1cc(F)c(F)cc1-c1ccc(OCc2cccc(C(=O)N(CC(=O)O)CC3CCNCC3)c2)cc1 [Example 35, Trifluoroacetate]; condition not met
14) COC[C@H](C)N(CC(=O)O)C(=O)c1cccc(COc2ccc(-c3cc(F)c(F)c4ccoc34)cc2)c1 [Example 80]; condition met
15) CO[C@H]1CCN(C(=O)c2cccc(COc3ccc(-c4cc(F)c(F)c5ccoc45)cc3)c2)[C@@H]1C(=O)O [Example 78]; condition met
16) CSc1cc(F)c(F)cc1-c1ccc(OCc2cccc(C(=O)N3C[C@H](N(C)C)C[C@H]3C(=O)O)c2)cc1 [Example 63, Trifluoroacetate]; condition met
17) CSc1cc(F)c(F)cc1-c1ccc(OCc2cccc(C(=O)N(CC(=O)O)Cc3ccncc3)c2)cc1 [Example 19, Trifluoroacetate]; condition met
18) CSc1cc(F)c(F)cc1-c1ccc(OCc2cccc(C(=O)N(CC(=O)O)Cc3coc(C)n3)c2)cc1 [Example 67]; condition met
19) CSc1cc(F)c(F)cc1-c1ccc(OCc2cccc(C(=O)N(CC(=O)O)Cc3ccn[nH]3)c2)cc1 [Example 54]; condition not met
20) CSc1cc(F)c(F)cc1-c1ccc(OCc2cccc(C(=O)N(CC(=O)O)Cc3ccncn3)c2)cc1 [Example 53]; condition not met
21) CSc1cc(F)c(F)cc1-c1ccc(OCc2cccc(C(=O)N(CC(=O)O)Cc3ncco3)c2)cc1 [Example 42]; condition met
22) COCCN(CC(=O)O)C(=O)c1cccc(COc2ccc(-c3cc(F)c(F)cc3SC)cc2)c1 [Example 6]; condition met
23) CSc1cc(F)c(F)cc1-c1ccc(OCc2cccc(C(=O)N(CC(=O)O)CC(=O)N3CCCC3)c2)cc1 [Example 25]; condition met
24) COC1CCN(C(=O)c2cccc(COc3ccc(-c4cc(F)c(F)cc4SC)cc3)c2)C1C(=O)O (stereo in doubt) [Example 33]; condition met
25) CSc1cc(F)c(F)cc1-c1ccc(OCc2cccc(C(=O)N(CC(=O)O)Cc3nnc(C)o3)c2)cc1 [Example 73]; condition met
26) CSc1cc(F)c(F)cc1-c1ccc(OCc2cccc(C(=O)N(CCS(C)(=O)=O)CC(=O)O)c2)cc1 [Example 31]; condition not met
27) COC(C)CN(CC(=O)O)C(=O)c1cccc(COc2ccc(-c3cc(F)c(F)cc3SC)cc2)c1 (stereo not shown) [Example 45]; condition met
